Counter-ions that a name gives are not always drawn.
assay-metric: melting point

compound: Cc1cccc(C(OC2CCN(C)CC2)c2nc3ccccc3s2)c1 (stereo not shown) (as salt: oxalate) [Example 8]
measurement: 177 °C
//
compound: CN1CCC(OC(c2nc3ccccc3[nH]2)c2cc(OC(F)(F)F)ccc2F)CC1 (stereo not shown) [Example 433]
measurement: 95 °C
//
compound: CN1CCC(NC(c2cccc(-c3ccccc3)c2)c2nc3ccccc3[nH]2)CC1 (stereo not shown) [Example 94]
measurement: 98 °C
//
compound: CN1CCC(OC(c2cccc(SCCNC(N)=O)c2)c2nc3ccccc3[nH]2)CC1 (stereo not shown) [Example 298]
measurement: 136 °C

###

test-target: human H4 receptor (Homo sapiens, UniProt Q9H3N8)
Construct: expressed in transfected cells
Sequence (Q9H3N8 whole entry): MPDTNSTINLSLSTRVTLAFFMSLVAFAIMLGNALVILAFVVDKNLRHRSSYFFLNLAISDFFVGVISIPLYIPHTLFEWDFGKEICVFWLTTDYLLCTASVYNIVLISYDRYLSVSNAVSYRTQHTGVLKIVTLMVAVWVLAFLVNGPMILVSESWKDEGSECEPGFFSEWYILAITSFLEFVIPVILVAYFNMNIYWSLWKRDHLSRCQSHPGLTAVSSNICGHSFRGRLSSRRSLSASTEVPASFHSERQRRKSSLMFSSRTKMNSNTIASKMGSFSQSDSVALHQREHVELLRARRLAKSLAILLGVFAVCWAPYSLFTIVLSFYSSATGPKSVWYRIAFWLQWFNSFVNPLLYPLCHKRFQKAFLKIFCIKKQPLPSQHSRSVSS
method-description: [3H]Histamine binding on membranes of CHO cells stably expressing human H4 receptor
Protocol: CHO cells stably expressing human H4 receptor were grown until sub-confluence and centrifuged at 300 g 15 minutes at 4° C. Pellets were resuspended in buffer I Tris-HCl 50 mM, MgCl2 10 mM, NaCl 140 mM, pH=7.4 supplemented by a 1/50 dilution of a mix of protease inhibitors. […] Protein content is measured by the Bradford method. […] The filter-bound radioactivity was measured in a liquid scintillation counter Microbeta TRILUX® with 50 μl of scintillation fluid. […]
Quick reference: Ki or IC50 activity class of the listed items.

compound: CN1CCC(OC(c2cccc(C=CC#N)c2)c2nc3ccccc3s2)CC1 (centres unmarked)
Ki or IC50 activity class: < 300 nM
//
compound: CN1CCC(OC(c2cccc(SCCn3ccnn3)c2)c2nc3ccccc3s2)CC1 (centres unmarked)
Ki or IC50 activity class: < 300 nM
//
compound: C=CCOc1cccc(C(NC2CCN(C)CC2)c2nc3ccccc3[nH]2)c1 (centres unmarked)
Ki or IC50 activity class: < 1000 nM
//
compound: CN1CCC(OC(c2nc3ccccc3s2)c2ccc(F)cc2F)CC1 (centres unmarked)
Ki or IC50 activity class: < 300 nM
//
compound: CN1CCC(OC(c2cccc(SCCCO)c2)c2nc3ccccc3[nH]2)CC1 (centres unmarked)
Ki or IC50 activity class: < 300 nM
//
compound: CN1CCC(OC(c2cccc(-n3cccn3)c2)c2nc3ccccc3s2)CC1 (centres unmarked)
Ki or IC50 activity class: < 300 nM
//
compound: CC(O)COCC#Cc1cccc(C(OC2CCN(C)CC2)c2nc3ccccc3s2)c1 (centres unmarked)
Ki or IC50 activity class: < 30 nM
//
compound: CN1CCC(OC(c2cccc(SCCCCNC(=N)N)c2)c2nc3ccccc3[nH]2)CC1 (centres unmarked)
Ki or IC50 activity class: < 300 nM
//
compound: Cc1ccc(C(OC2CCN(C)CC2)c2nc3ccccc3[nH]2)cc1 (single isomer, unassigned) [Example 253]
Ki or IC50 activity class: < 30 nM
//
compound: CN1CCC(OC(c2cccc(-c3ccc(NC(=O)OC(C)(C)C)cc3)c2)c2nc3ccccc3s2)CC1 (centres unmarked)
Ki or IC50 activity class: < 300 nM
//
compound: CCCCCCc1cccc(C(NC2CCN(C)CC2)c2nc3ccccc3[nH]2)c1 (centres unmarked)
Ki or IC50 activity class: < 300 nM
//
compound: CCSc1ccc(F)c(C(OC2CCN(C)CC2)c2nc3ccccc3[nH]2)c1 (centres unmarked)
Ki or IC50 activity class: < 30 nM
//
compound: COC(=O)CSc1cccc(C(OC2CCN(C)CC2)c2nc3ccccc3[nH]2)c1 (centres unmarked)
Ki or IC50 activity class: < 300 nM
//
compound: CNCCOc1cccc(C(OC2CCN(C)CC2)c2nc3ccccc3s2)c1 (centres unmarked)
Ki or IC50 activity class: < 1000 nM
//
compound: CN1CCC(OC(c2ccc3c(c2)OCO3)c2nc3ccccc3[nH]2)CC1 (centres unmarked)
Ki or IC50 activity class: < 300 nM
//
compound: CN1CCC(NC(c2cccc(OCc3ccc(F)cc3)c2)c2nc3ccccc3[nH]2)CC1 (centres unmarked)
Ki or IC50 activity class: < 300 nM
//
compound: CN1CCC(OC(c2nc3ccccc3[nH]2)c2cccc(-c3ccccc3)c2O)CC1 (centres unmarked)
Ki or IC50 activity class: < 300 nM

###

Quick reference: melting point of the listed items.
Where a name gives a salt, the structure may show the parent alone.

compound: CN1CCC(OC(c2ccc(Cl)cc2)c2nc3ccccc3s2)CC1 (stereo not shown) (as salt: oxalate)
melting point: 147 to 148 °C
//
compound: CN1CCC(NC(c2cccc(OCc3cccc(F)c3F)c2)c2nc3ccccc3[nH]2)CC1 (stereo not shown)
melting point: 151 °C
//
compound: CN1CCC(OC(c2cccc(OCc3cccc(F)c3)c2)c2nc3ccccc3s2)CC1 (stereo not shown) (as salt: oxalate)
melting point: 65 °C
//
compound: CN1CCC(NC(c2cccc(OCCCC3(C)OCCO3)c2)c2nc3ccccc3[nH]2)CC1 (stereo not shown) (as salt: oxalate)
melting point: 120 °C
//
compound: CN1CCC(OC(c2ccccc2)c2nc3cccc(N)c3[nH]2)CC1 (stereo not shown)
melting point: 96.7 °C
//
compound: CN1CCC(OC(c2ccc3c(c2)OCO3)c2nc3ccccc3s2)CC1 (stereo not shown) (as salt: hydrochloride)
melting point: 110 °C
//
compound: CN1CCC(OC(c2nc3ccccc3[nH]2)c2cc(F)cc(F)c2O)CC1 (stereo not shown)
melting point: 142 °C
//
compound: CCCOc1cccc(C(NC2CCN(C)CC2)c2nc3ccccc3s2)c1 (stereo not shown)
melting point: 90 °C
//
compound: CN1CCC(OC(c2cccc(SCCCCO)c2)c2nc3cc(F)c(F)cc3[nH]2)CC1 (stereo not shown)
melting point: 60 °C
//
compound: CN1CCC(OC(c2cccc(OCC=CCN)c2)c2nc3ccccc3s2)CC1 (stereo not shown) (as salt: oxalate)
melting point: 117 °C
//
compound: CN1CCC(OC(c2cccc(N)c2)c2nc3ccccc3[nH]2)CC1 (stereo not shown)
melting point: 100 °C
//
compound: CN1CCC(OC(c2cccc(I)c2)c2nc3ccccc3n2C)CC1 (stereo not shown) (as salt: oxalate)
melting point: 76 °C
//
compound: CN1CCC(OC(c2nc3ccccc3[nH]2)c2cc(C(C)(C)c3ccccc3)ccc2O)CC1 (stereo not shown)
melting point: 130 °C
//
compound: CN1CCC(OC(c2cccc(OCCCF)c2)c2nc3ccccc3[nH]2)CC1 (stereo not shown) (as salt: oxalate)
melting point: 106 °C
//
compound: CN1CCC(OC(c2cccc(OCCCCCNCC(=O)OC(C)(C)C)c2)c2nc3ccccc3s2)CC1 (stereo not shown) (as salt: oxalate)
melting point: 99 °C
//
compound: CN1CCC(OC(c2nc3ccccc3[nH]2)c2ccc(C(F)(F)F)cc2O)CC1 (stereo not shown)
melting point: 144 °C

###

Quick reference: Ki or IC50 activity class of the listed items.
test-target: human H4 receptor (Homo sapiens, UniProt Q9H3N8)
Construct: expressed in transfected cells
method-description: [3H]Histamine binding on membranes of CHO cells stably expressing human H4 receptor

compound: CN1CCC(OC(c2ccc([N+](=O)[O-])cc2)c2nc3ccccc3[nH]2)CC1 (centres unmarked)
Ki or IC50 activity class: < 1000 nM

compound: CCOCCn1c(C(OC2CCN(C)CC2)c2cccc(I)c2)nc2ccccc21 (centres unmarked)
Ki or IC50 activity class: < 1000 nM

compound: Nc1ccc(C(OC2CCNCC2)c2nc3ccccc3[nH]2)cc1 (centres unmarked)
Ki or IC50 activity class: < 1000 nM

compound: CC(=O)c1cccc(C(NC2CCN(C)CC2)c2nc3ccccc3[nH]2)c1 (centres unmarked)
Ki or IC50 activity class: < 300 nM

compound: CN1CCC(OC(c2cccc(C=CCN)c2)c2nc3ccccc3[nH]2)CC1 (centres unmarked)
Ki or IC50 activity class: < 1000 nM

###

Structures can show the parent of a compound that is named as a salt.
assay-metric: melting point (°C)

compound: CN1CCC(OC(c2cccc(SCCCCN)c2)c2nc3ccccc3[nH]2)CC1 (centres unmarked) (as salt: oxalate)
measurement: 146
//
compound: CN1CCC(OC(c2cccc(C(=O)N(C)c3ccccc3)c2)c2nc3ccccc3s2)CC1 (centres unmarked) (as salt: oxalate)
measurement: 125
//
compound: CC(C)CCCOc1cccc(C(NC2CCN(C)CC2)c2nc3ccccc3[nH]2)c1 (centres unmarked)
measurement: 73
//
compound: CN1CCC(OC(c2cccc(-c3cnc(O)nc3)c2)c2nc3ccccc3s2)CC1 (centres unmarked)
measurement: 170
//
compound: CN1CCC(OC(c2cccc(C#N)c2)c2nc3ccccc3s2)CC1 (centres unmarked) (as salt: oxalate)
measurement: 75
//
compound: CC(C)Oc1cccc(C(NC2CCN(C)CC2)c2nc3ccccc3[nH]2)c1 (centres unmarked)
measurement: 75
//
compound: Cc1ccccc1C(OC1CCN(C)CC1)c1nc2ccccc2[nH]1 (centres unmarked)
measurement: 190
//
compound: CN1CCC(OC(c2ccc(Cl)cc2)c2nc3ccccc3[nH]2)CC1 (centres unmarked) (as salt: oxalate)
measurement: 175
